These measurements were taken from patent US10107798B2.

Listing: EC50 of selected molecules
Target: Aurora A (Homo sapiens, UniProt O14965)
Sequence (O14965 1-403): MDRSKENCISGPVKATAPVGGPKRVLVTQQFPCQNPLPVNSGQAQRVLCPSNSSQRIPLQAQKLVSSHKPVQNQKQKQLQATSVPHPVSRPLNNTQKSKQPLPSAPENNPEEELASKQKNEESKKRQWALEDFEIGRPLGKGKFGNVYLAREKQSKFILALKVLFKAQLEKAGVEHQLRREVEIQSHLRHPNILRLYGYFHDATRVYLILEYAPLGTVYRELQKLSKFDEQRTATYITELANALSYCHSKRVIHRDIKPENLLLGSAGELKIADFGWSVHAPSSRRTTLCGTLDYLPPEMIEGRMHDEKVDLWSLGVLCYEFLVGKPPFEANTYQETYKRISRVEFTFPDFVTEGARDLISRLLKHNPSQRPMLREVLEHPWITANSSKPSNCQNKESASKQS
Experiment: Aurora A activity in cell based assays
Conditions: inhibition of Aurora A activity in cell based assays
Write the numeric value and append its unit.

1) COc1ccc(C(=O)Nc2ccccc2)cc1NC(=O)CCSc1ncnc(N)c1Br [Compound 15]; 1000 nM

Read the next record carefully.
Requested read-out: EC50. Entry: Nc1ncnc(NCCc2cnc(NC(=O)Nc3cccc(C(F)(F)F)c3)s2)c1Br [Compound 18] 50 nM
